assay: chemical genetic growth profiling, strain panel (AID 1159580);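 also: tested at 20 µM; growth read once vehicle control cultures reached saturation at 30 °C; 1 = growth at the plate median or of vehicle wells; lower values mean less growth of the strain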; settings: S. cerevisiae deletion strains, growth OD, locus YPL031C, strain PHO85, hits give low values
About 2,000 (36%) of roughly 5,500 compounds were called active. About 18% were inconclusive and are not listed. Some of the results follow.
attribute-measured: normalized growth

>>> obs_value("Cc1csc2c(N3CCN(C(=S)Nc4ccc(C(F)(F)F)cc4)CC3)ncnc12")
0.986
>>> obs_value("Cc1csc2ncnc(N3CCN(C(=O)Nc4ccc(SC(F)(F)F)cc4)CC3)c12")
0.915
>>> obs_value("COC(=O)c1cc(I)c(OC(C)=O)c(I)c1")
0.949
>>> obs_value("Cn1cc(Br)c(-c2cccc(NS(=O)(=O)c3ccc(Cl)cc3)c2)n1")
0.989
>>> obs_value("CCOC(=O)c1cnc(-c2ccccn2)[nH]c1=O")
0.82
>>> obs_value("O=S(=O)(Nc1c(F)cccc1F)c1ccc(Cl)c(Cl)c1")
0.964

* * *

assay: chemical genetic growth profiling, strain panel (AID 1159580);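 also: tested at 20 µM; growth read once vehicle control cultures reached saturation at 30 °C; 1 = growth at the plate median or of vehicle wells; lower values mean less growth of the strain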; conditions: S. cerevisiae deletion strains, growth OD, locus YDR162C, strain NBP2
Among all 5,500 compounds or so, about 2,000 (36%) were called active. Not shown: some 18% with an inconclusive outcome. Rule as the data show it: active = normalized growth mostly below about 0.91 (no sharp cut-off); inconclusive = no clear call, values can overlap the other calls; inactive = mostly above about 0.92. The list shows a part of the results.
Possible outcomes: active, inactive

>>> qualitative_label("O=c1c(O)c(-c2ccccc2)oc2ccc3occc3c12")
"active"
>>> qualitative_label("O=C(N[C@@H](CO)[C@H](O)c1ccc([N+](=O)[O-])cc1)C(Cl)Cl")
"inactive"
>>> qualitative_label("CNC(=O)N(C)c1nnc(C(C)(C)C)s1")
"inactive"
>>> qualitative_label("CNC(=O)Oc1ccccc1OC(C)C")
"inactive"
>>> qualitative_label("O=C(O)CCC(=O)OC[C@@H](NC(=O)C(Cl)Cl)[C@H](O)c1ccc([N+](=O)[O-])cc1")
"inactive"
>>> qualitative_label("CC(C)Cn1c(=O)n(C)c(=O)c2[nH]cnc21")
"inactive"
>>> qualitative_label("Cc1c(NC(C)C)c(=O)n(-c2ccccc2)n1C")
"inactive"
>>> qualitative_label("CNC(=O)Oc1cccc2c1OC(C)(C)C2")
"inactive"
>>> qualitative_label("CCCc1ncc(C[n+]2ccccc2C)c(N)n1")
"inactive"
>>> qualitative_label("COC(=O)CC1C(C)(C)C(=O)C2CC3(O)C4=CC(=O)OC(c5ccoc5)C4(C)CCC3C1(C)C2=O (stereo unspecified)")
"inactive"
>>> qualitative_label("O=c1c(O)c(-c2ccccc2)oc2cc(O)ccc12")
"active"

* * *

experiment: chemical genetic growth profiling, strain panel (AID 1159580);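 also: tested at 20 µM; growth read once vehicle control cultures reached saturation at 30 °C; 1 = growth at the plate median or of vehicle wells; lower values mean less growth of the strain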; conditions: S. cerevisiae deletion strains, growth OD, locus YDL074C, strain BRE1
About 2,000 (36%) of roughly 5,500 compounds were called active. Roughly 18% stayed inconclusive and do not appear here. No stated cut-off is given here; in the data, active means normalized growth mostly below about 0.91 (no sharp cut-off); inconclusive means no clear call, values can overlap the other calls; inactive means mostly above about 0.92. The list shows a part of the results.
Possible outcomes: class 1 (active), class 0 (inactive)

>>> qualitative_label("COc1cc(Cc2cnc(N)nc2N)cc(OC)c1OC")
"class 0"
>>> qualitative_label("O=C1c2ccccc2C(=O)c2ccccc21")
"class 0"
>>> qualitative_label("COC(=O)c1cc(OC)c(=O)c2c(OC)c(OC)ccc2c1")
"class 0"
>>> qualitative_label("O=C1C=C(O)c2ccccc2C1=O")
"class 0"
>>> qualitative_label("N[C@@H](C(=O)N[C@@H]1C(=O)N2C(C(=O)O)=C(Cl)CS[C@H]12)c1ccccc1")
"class 0"
>>> qualitative_label("CC(=O)OC[C@@]1(O)C[C@@]23CCC4c5ccoc5CC[C@]4(C)C2CC[C@@H]1C3 (some centres undefined)")
"class 0"
>>> qualitative_label("CC(C)[C@@H]1CC[C@@H](C)C[C@H]1OC(=O)c1ccccc1")
"class 0"
>>> qualitative_label("C[N+]1(C)CCCC(OC(=O)C(O)(c2ccccc2)c2ccccc2)C1 (centres undefined)")
"class 0"
>>> qualitative_label("O=c1c(O)c(-c2ccccc2)oc2ccc3occc3c12")
"class 1"
>>> qualitative_label("COC1=CC23CCCN2CCc2cc4c(cc2C3C1O)OCO4 (centres undefined)")
"class 0"
>>> qualitative_label("C=C(C)C1Cc2c(ccc(C(=O)O)c2O)O1 (centres undefined)")
"class 0"
>>> qualitative_label("CC(=O)OC1CCC23CC1(C)CCC2C(C)(C)CC3OC(C)=O (centres undefined)")
"class 0"
>>> qualitative_label("O=C(N[C@@H](CO)[C@H](O)c1ccc([N+](=O)[O-])cc1)C(Cl)Cl")
"class 0"
>>> qualitative_label("COP(=O)(NC(C)=O)SC (centres undefined)")
"class 0"
>>> qualitative_label("C[C@]12[C@H](O)CC3C(CC[C@@H]4C[C@@H](O)CC[C@]34C)[C@@]1(O)CC[C@@H]2C1=CC(=O)OC1 (some centres undefined)")
"class 0"
>>> qualitative_label("Cn1c(=O)c2c(ncn2CCCl)n(C)c1=O")
"class 0"
>>> qualitative_label("COc1ccc(NS(=O)(=O)c2ccc(N)cc2)nn1")
"class 0"
>>> qualitative_label("CNC(=O)Oc1cccc2c1OC(C)(C)C2")
"class 0"
>>> qualitative_label("COc1cc2c(cc1OC)C(C)NCC2 (centres undefined)")
"class 0"
>>> qualitative_label("C=C(C)C1Cc2c(ccc3c(=O)c4c(oc23)COc2cc(OC)c(OC)cc2-4)O1 (centres undefined)")
"class 0"
>>> qualitative_label("O[C@H]1[C@H](O)[C@@H](O)C2OC[C@H]1O2")
"class 0"
>>> qualitative_label("Cn1c(=O)[nH]c2ncn(C)c2c1=O")
"class 0"
>>> qualitative_label("COc1cc(O)ccc1C(C)=O")
"class 0"
>>> qualitative_label("CC(=O)OCC1=C(C(=O)O)N2C(=O)[C@@H](NC(=O)CSc3ccncc3)[C@H]2SC1")
"class 0"
>>> qualitative_label("CN1CCC[C@H]1c1cccnc1")
"class 0"
>>> qualitative_label("O=c1c(O)c(-c2ccccc2)oc2ccccc12")
"class 0"
>>> qualitative_label("CC(=O)OC1CCC2(O)CC1(C)CCC1C2CC1(C)C (centres undefined)")
"class 0"
>>> qualitative_label("COc1ccc(-c2c(O)c3c(OC)c4c(cc3oc2=O)OC(C)(C)C=C4)cc1")
"class 0"
>>> qualitative_label("Cn1c(=O)c2c(ncn2CCO)n(C)c1=O")
"class 0"
>>> qualitative_label("CC(C)c1cc2c(c(O)c1O)[C@@]1(C(=O)O)CCCC(C)(C)C1CC2 (some centres undefined)")
"class 0"
>>> qualitative_label("O=C(/C=C/c1ccccc1)c1c(O)cc(O)cc1O")
"class 0"
>>> qualitative_label("ClC1C(Cl)C(Cl)C(Cl)C(Cl)C1Cl (centres undefined)")
"class 0"
>>> qualitative_label("NS(=O)(=O)c1cc2c(cc1Cl)NCNS2(=O)=O")
"class 0"
>>> qualitative_label("Cn1c(=O)[nH]c2nc[nH]c2c1=O")
"class 0"
>>> qualitative_label("COc1ccccc1OCC(O)COC(N)=O (centres undefined)")
"class 0"
>>> qualitative_label("CC(=O)Nc1c(I)cc(I)c(C(=O)O)c1I")
"class 0"
>>> qualitative_label("O=C(O)c1cc(=O)c2ccccc2[nH]1")
"class 0"
>>> qualitative_label("CC(=O)Oc1c(C)c(C)c2c(c1C)CCC(C)(CCCC(C)CCCC(C)CCCC(C)C)O2 (centres undefined)")
"class 0"
>>> qualitative_label("CC1(C)CC23C(=O)CCC(O)C2(C)CCC13 (centres undefined)")
"class 0"
>>> qualitative_label("COc1ccc(-c2c(OC)c3c(OC)c4c(cc3oc2=O)OC(C)(C)C=C4)cc1")
"class 0"
>>> qualitative_label("O=C(/C=C/c1ccc(O)cc1)c1ccc(O)cc1O")
"class 0"
>>> qualitative_label("Cn1c(=O)c2c(ncn2C)n(C)c1=O")
"class 0"
>>> qualitative_label("CC1=C(C(=O)O)N2C(=O)[C@@H](NC(=O)[C@@H](N)c3ccc(O)cc3)[C@H]2SC1")
"class 0"
>>> qualitative_label("CCCC(=O)Nc1ccc(OCC(O)CNC(C)C)c(C(C)=O)c1 (centres undefined)")
"class 0"
>>> qualitative_label("O=C(CCc1ccc(O)cc1)c1c(O)cc(O)cc1O")
"class 0"
>>> qualitative_label("CN1CCCCC1c1ccc(-c2cccnc2)nc1 (centres undefined)")
"class 0"
>>> qualitative_label("C[C@H]1C(=O)CCC2[C@]3(C)CC[C@@]4(C)C5CC(C)(C)CC[C@]5(C)CC[C@]4(C)C3CC[C@@]21C (some centres undefined)")
"class 0"
>>> qualitative_label("Cc1cc(O)c2c(c1)C(=O)c1cccc(O)c1C2=O")
"class 0"
>>> qualitative_label("OC[C@H]1O[C@@H](Oc2ccc(O)cc2)[C@H](O)[C@@H](O)[C@@H]1O")
"class 0"
